Would you kindly list Bliss excess for each of these compounds?
test system: DG-75 (Burkitt's Lymphoma); assay: Bliss excess, mean over the matrix (fraction); higher = more synergy;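 further: after 72 h of two-drug dosing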
Give bare numbers.

COMPOUND	ASSAY TARGET	OBSERVED RESULT
CCN(CCO)CCCOc1ccc2c(Nc3cc(CC(=O)Nc4cccc(F)c4)[nH]n3)ncnc2c1 [AZD2811] + C[C@@H]1COCCN1C2=NC(=NC(=C2)C3(CC3)[S@](=N)(=O)C)C4=C5C=CNC5=NC=C4 [AZD6738] (first compound max 1 µM, 7x7, partner max 10 µM)	DG-75 (Burkitt's Lymphoma)	-0.0611
CCc1c2c(nc3ccc(O)cc13)-c1cc3c(c(=O)n1C2)COC(=O)[C@]3(O)CC [SN-38] + CN(C)CCCOc1ccc(-c2ccc3ncc4c(c3c2)n(C2CCOCC2)c(=O)n4C)cn1 [AZD0156] (first compound max 0.3 µM, 7x7, partner max 1 µM)	DG-75 (Burkitt's Lymphoma)	0.0751

Could you now consider this next compound?
Q. Endpoint output: Bliss excess of CN(CCO)CC[C@H](CSc1ccccc1)Nc1ccc(S(=O)(=O)NC(=O)c2ccc(N3CCC([C@@H](O)c4ccccc4-c4ccc(Cl)cc4)CC3)cc2)cc1S(=O)(=O)C(F)(F)F [AZD4320] + C1CN(CCC1(C(=O)N[C@@H](CCO)C2=CC=C(C=C2)Cl)N)C3=NC=NC4=C3C=CN4 [Capivasertib] (first compound max 1 µM, 7x7, partner max 3 µM) . Value?
A. -0.0093
